The entries below are paired with their reported melting point.

MOLECULE	melting point
O=C(O)c1ccccc1Nc1ccc(CCCCc2ccc(Cl)c(Cl)c2)cc1	98 to 105 °C
COC(=O)c1nn(C2CCCCO2)cc1NC(=O)c1ccccn1 (stereo not given)	131 to 132 °C
C#CCNc1cc(C(=O)O)cc(S(N)(=O)=O)c1Oc1ccccc1	222 to 223 °C
CC(O)C(Cc1cc(C(C)(C)C)c(O)c(C(C)(C)C)c1)C(C)O (stereo not given)	102 to 105 °C
Cc1nnc(-c2ccnc3[nH]c(CCc4ccccc4)cc23)o1	210 °C
O=C1NC(=S)SC1=Cc1ccc2c(c1)N(CCc1cccc(Cl)c1)C(=O)CO2	280 to 282 °C
C=C(F)c1c(C(=O)OC)nc(Cl)c(F)c1N	98 to 100 °C
CC=C(c1ccccc1)c1c(C)nn(C)c1NC(=O)Nc1ccccc1	173 to 195 °C
CCOC(=O)CCc1cc(O)nn1C1CCCCC1	173 to 174 °C
CNC(=O)c1cc(Oc2ccc(NC(=O)Nc3ccc4c(c3)C(F)(F)OC(F)(F)O4)c(S(C)(=O)=O)c2)ccn1	222 to 224 °C
